Source listed as ChEMBL document CHEMBL4421722.

- Species on record: Rattus norvegicus
- ASSAY: Inhibition of rat recombinant geranylgeranyltransferase type I expressed in Escherichia coli assessed as residual enzyme activity for geranylgeranylation of K-Ras4B at 50 uM incubated for 30 mins in presence of [3H]GGPP by scintillation counting assay relative to control
Activity reference

INSERT INTO assay_data (mol_smiles, reported_result) VALUES
  ('C=CCS[C@@H]1C[C@@H](c2ccc(Cl)cc2)N(S(=O)(=O)c2ccccc2C)C[C@H]1C(=O)O', '16.4 to 17.8%'),
  ('Cc1ccc(S(=O)(=O)N2C[C@@H](C(=O)O)[C@H](SCCc3ccccc3)C[C@H]2c2ccccc2)cc1', '15.2 to 16.5%');

Activity for Cc1ccc(S(=O)(=O)N2C[C@@H](C(=O)O)[C@H](SCC(C)C)C[C@H]2c2cccc(Br)c2)cc1 ?
11.4 to 18.8%
